system: TGFβ pathway; experiment: Cellular TGFβ reporter (12xCAGA luciferase) assay in HEK293T cells; assay type: cell-based; settings: Homo sapiens, HEK-293T, 5 ng/mL recombinant TGFβ, 12xCAGA luciferase reporter, read-out: cellular inhibition TGFβ pathway IC50
ATTRIBUTE MEASURED: IC50 (nM)
Give the value, in units of nM, as a plain number.

IC50 reported for this compound Cc1cccc(-c2[nH]c(CNc3ccccc3F)nc2-c2ccc3ncnn3c2)n1 [vactosertib] : 10

IC50 reported for this compound Cc1cccc(-c2nn3c(c2-c2ccnc4ccc(C(N)=O)cc24)CCC3)n1 [galunisertib] : 157

IC50 reported for this compound Cc1cccc(-c2nn3c(c2-c2ccnc4ccc(O)cc24)CCC3)n1 [HYL001] : 72

---

test: Literature oral pharmacokinetics in mice; assay type: in vivo; conditions: female, mouse, plasma, mice (♀ CD-1), 75 mg/kg, estimated using AUClast of ref 20
ATTRIBUTE MEASURED: CL/F
Answer format reminder: number followed by unit.

CL/F reported for this compound Cc1cccc(-c2nn3c(c2-c2ccnc4ccc(C(N)=O)cc24)CCC3)n1 : 402 mL/min/kg

---

test: Plasma pharmacokinetics after single oral administration in rats; type: in vivo, Sprague Dawley rats; conditions: male, Sprague-Dawley, rat, plasma, rats (♂ SD), 71 mg/kg, read-out: Vss/F
ATTRIBUTE MEASURED: Vd/F (L/kg)
Give the value, in units of L/kg, as a plain number.

Vd/F reported for this compound Cc1cccc(-c2nn3c(c2-c2ccnc4ccc(O)cc24)CCC3)n1 : 10.8

---

assay: Metabolic stability in human cryopreserved hepatocytes; type: in vitro ADME; settings: human, hepatocytes (suspension, cryopreserved), pH 7.4, human hepatocytes; read-out: Disappearance T1/2
ATTRIBUTE MEASURED: half-life (min)
Give the value, in units of min, as a plain number.

half-life reported for this compound Cc1cccc(-c2[nH]c(CNc3ccccc3F)nc2-c2ccc3ncnn3c2)n1 [vactosertib] : 55.3

---

assay: Metabolic stability in human cryopreserved hepatocytes; assay type: in vitro ADME; settings: human, hepatocytes, pH 7.4, Disappearance T1/2
ATTRIBUTE MEASURED: half-life (min)
Give the value, in units of min, as a plain number.

half-life reported for this compound Cc1cccc(-c2nn3c(c2-c2ccnc4ccc(O)cc24)CCC3)n1 [HYL001] : 51.8

---

assay: Metabolic stability in human cryopreserved hepatocytes; assay type: in vitro ADME; settings: human, hepatocytes, pH 7.4, Assumed T1/2
ATTRIBUTE MEASURED: half-life (h)
Give the value, in units of h, as a plain number.

half-life reported for this compound Cc1cccc(-c2nn3c(c2-c2ccnc4ccc(C(N)=O)cc24)CCC3)n1 [galunisertib] : 2.67

---

assay: Metabolic stability in human cryopreserved hepatocytes; type: in vitro ADME; conditions: hepatocytes (suspension, cryopreserved), pH 7.4; scaled using 120 M cells per g liver, liver weight 20 g/kg (human); read-out: Scaled in vivo Clint
ATTRIBUTE MEASURED: CLint scaled (mL/min/kg)
Give the value, in units of mL/min/kg, as a plain number.

CLint scaled reported for this compound Cc1cccc(-c2[nH]c(CNc3ccccc3F)nc2-c2ccc3ncnn3c2)n1 : 30.1

---

Biological target: ALK5 (TGFBR1) (Homo sapiens, UniProt P36897, T204D)
Sequence (P36897 200-503 T204D): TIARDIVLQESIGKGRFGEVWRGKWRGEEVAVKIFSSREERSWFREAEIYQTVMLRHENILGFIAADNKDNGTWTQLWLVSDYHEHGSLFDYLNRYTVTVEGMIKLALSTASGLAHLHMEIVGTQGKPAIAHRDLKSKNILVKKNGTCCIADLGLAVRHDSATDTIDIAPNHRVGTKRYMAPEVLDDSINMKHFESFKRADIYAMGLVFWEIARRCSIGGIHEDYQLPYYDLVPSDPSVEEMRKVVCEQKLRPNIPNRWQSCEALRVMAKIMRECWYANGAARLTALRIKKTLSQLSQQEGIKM
Test: Radiometric in vitro kinase activity assay (Kinase Profiler)
Conditions: recombinant TGFBR1 fragment 200–end (T204D); read-out: kinase inhibition IC50, ALK5 (TGFBR1)
ATTRIBUTE MEASURED: IC50 (nM)
Give the value, in units of nM, as a plain number.

IC50 reported for this molecule Cc1cccc(-c2nn3c(c2-c2ccnc4ccc(O)cc24)CCC3)n1 : 177
